The values you see were collected from patent US20260174875A1.

Biological target: T1, human amylin-3(a) receptor (human, UniProt P30988 25-474; O60896 24-148)
T1 sequence (looked up) 1: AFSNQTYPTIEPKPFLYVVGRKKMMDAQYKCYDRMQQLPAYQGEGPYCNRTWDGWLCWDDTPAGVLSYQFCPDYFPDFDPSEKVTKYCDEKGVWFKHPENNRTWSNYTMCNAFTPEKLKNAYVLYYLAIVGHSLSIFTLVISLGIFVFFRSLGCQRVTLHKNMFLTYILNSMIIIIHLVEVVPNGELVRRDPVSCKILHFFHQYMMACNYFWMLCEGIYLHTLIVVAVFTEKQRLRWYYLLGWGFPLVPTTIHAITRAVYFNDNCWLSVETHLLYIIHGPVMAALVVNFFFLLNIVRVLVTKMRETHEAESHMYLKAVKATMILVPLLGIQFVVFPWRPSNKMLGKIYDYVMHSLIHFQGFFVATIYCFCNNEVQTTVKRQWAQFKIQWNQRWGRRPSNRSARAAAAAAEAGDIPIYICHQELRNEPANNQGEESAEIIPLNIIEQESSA
T1 sequence (looked up) 2: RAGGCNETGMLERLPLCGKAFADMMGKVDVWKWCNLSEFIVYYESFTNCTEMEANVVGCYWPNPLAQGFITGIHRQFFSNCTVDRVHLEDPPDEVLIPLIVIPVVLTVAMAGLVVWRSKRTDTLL
Assay: cell-based or functional assay
Numbered stars: 1 amine (or outer) side, 2 acyl side, 3 side chain; on linkers, the order of the positions; unused ones are H or OH. Square brackets hold non-standard residues; d marks the D form. Side chains are listed from the residue outwards. * marks the point of attachment. C18 diacid = O=C(O)CCCCCCCCCCCCCCCCC(=O)*; γGlu = O=C(O)[C@H](CCC(=O)[*:2])N[*:1]; Chem. 28 = not defined here; AEEA = NCCOCCOCC(=O)O; Aib = CC(C)(N)C(=O)O
Give measured hAMYR3 Potency, 1% HSA, EC50 [pM] for each item. Keep answers brief.
Give bare numbers, in pM.

Binder: Compound 56 (reading uncertain) peptide: Y[Aib]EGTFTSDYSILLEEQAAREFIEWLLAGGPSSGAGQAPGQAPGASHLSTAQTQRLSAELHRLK(Chem. 28)TLPRTETGSGSP-NH2
Val: 44.9

Exercise: Specify hAMYR3 Potency, 1% HSA, EC50 [pM] for Compound 81 (peptide) peptide: Y[Aib]EGTFTSDYSILLEEQAAREFIEWLLAGGPSSGEASHLSTAQTQRLSAELHRLATLPK([AEEA-AEEA-γGlu-C18 diacid])TETGSGSP-NH2 and stop.
Key: 188
